System: lung cancer cell line NCI-H358 having the KRAS G12C variant
Assay: Cancer cell growth inhibition, 3D spheroids (CellTiter-Glo 3D)
Type: cell-based
Conditions: Homo sapiens, NCI-H358, 120 h; 3D spheroids, 0.002-10 µM, 5 days; read-out: H358 cell viability
pIC50: −log10 of the molar value.
So I've got a bunch of compounds here, and I need their pIC50 values.

The cases that follow already have their pIC50 on record.
Return pIC50 measured with lung cancer cell line NCI-H358 having the KRAS G12C variant given this compound: Cc1cc(C(=O)N[C@H](C)c2cc(N)cc(C(F)F)c2)nn(-c2cncc(-c3cnnn3C)c2)c1=O [Example 2-7]
< 5.52

Return pIC50 measured with lung cancer cell line NCI-H358 having the KRAS G12C variant given this compound: [2H]C([2H])([2H])c1cc(C(=O)N[C@H](C)c2cccc(C(F)F)c2F)nn(-c2cncc(-c3cnnn3C)c2)c1=O [Example 7-2]
> 6.00

Return pIC50 measured with lung cancer cell line NCI-H358 having the KRAS G12C variant given this compound: C[C@@H](NC(=O)c1ccc(=O)n(-c2cnnc(-c3cnnn3C)c2)n1)c1cccc(C(F)(F)CO)c1F [Example 1-37]
< 5.52

Return pIC50 measured with lung cancer cell line NCI-H358 having the KRAS G12C variant given this compound: CCn1nncc1-c1cncc(-n2nc(C(=O)N[C@H](C)c3cccc(C(F)(F)F)c3F)cc(C)c2=O)c1 [Example 1-25]
> 6.00

Return pIC50 measured with lung cancer cell line NCI-H358 having the KRAS G12C variant given this compound: CCn1nncc1-c1cncc(-n2nc(C(=O)N[C@H](C)c3cccc(C(F)(F)F)c3F)ccc2=O)c1 [Example 1-12]
> 6.00

Look at each compound and report its pIC50.
1. Cc1c([C@@H](C)NC(=O)c2ccc(=O)n(-c3cncc(-c4ccnn4C)c3)n2)cc(N)cc1C(F)(F)F [Example 2-4]
2. C[C@@H](NC(=O)c1ccc(=O)n(-c2cncc(-c3cnnn3C)c2)n1)c1cccc(C2(C)CC2)c1F [Example 1-33]
3. C[C@@H](NC(=O)c1ccc(=O)n(-c2cncc(-c3cnnn3C3CC3)c2)n1)c1cccc(C(F)(F)CO)c1F [Example 1-53]

> 6.00
< 5.52
> 6.00

* * *

Biological target: KRAS G12C::SOS1 (Homo sapiens, UniProt Q07889)
Construct: purchased CISBIO 64KRASG12PEH
Experiment: KRAS G12C::SOS1 protein-protein interaction (PPI) inhibition assay (HTRF)
Assay type: binding
pIC50: −log10 of the molar value.
observation type: pIC50

The cases that follow already have their pIC50 on record.
Return pIC50 measured with KRAS G12C::SOS1 (Homo sapiens, UniProt Q07889) given this compound: COCC1(c2cccc([C@@H](C)NC(=O)c3ccc(=O)n(-c4cncc(-c5cnnn5C)c4)n3)c2F)CC1
< 6.82

Return pIC50 measured with KRAS G12C::SOS1 (Homo sapiens, UniProt Q07889) given this compound: C[C@@H](NC(=O)c1ccc(=O)n(-c2cncc(-c3cnnn3[C@@H]3CC3(F)F)c2)n1)c1cccc(C(F)(F)F)c1F
< 6.82

Look at each compound and report its pIC50.
1. C[C@@H](NC(=O)c1ccc(=O)n(-c2cnnc(-c3cnnn3C)c2)n1)c1cccc(C(F)F)c1F
2. [2H]C([2H])(O)C(F)(F)c1cccc([C@@H](C)NC(=O)c2ccc(=O)n(-c3cncc(-c4cnnn4C4CNC4)c3)n2)c1F
3. C[C@@H](NC(=O)c1cc(CO)c(=O)n(-c2cncc(-c3cnnn3C3CC3)c2)n1)c1cccc(C(F)(F)F)c1F
4. C[C@@H](NC(=O)c1ccc(=O)n(-c2cnc(F)c(-c3cnnn3C)c2)n1)c1cccc(C(F)(F)F)c1F
5. C[C@@H](NC(=O)c1ccc(=O)n(-c2cnnc(-c3cnnn3C)c2)n1)c1cccc(C(F)(F)F)c1F
6. C[C@@H](NC(=O)c1ccc(=O)n(-c2cncc(-c3cnnn3C3CCNCC3)c2)n1)c1cccc(C(F)(F)F)c1F
7. C[C@@H](NC(=O)c1ccc(=O)n(-c2cc(-c3cnnn3C3CC3)cnc2F)n1)c1cccc(C(F)(F)CO)c1F
8. C[C@@H](NC(=O)c1ccc(=O)n(-c2cncc(-c3cnnn3[C@H]3CC3(F)F)c2)n1)c1cccc(C(F)(F)CO)c1F (single isomer, unassigned)

1. < 6.82
2. > 7.30
3. > 7.30
4. 6.82 to 7.30
5. < 6.82
6. 6.82 to 7.30
7. > 7.30
8. > 7.30

Look at each compound and report its pIC50.
1. C[C@@H](NC(=O)c1ccc(=O)n(-c2cncc(-c3cnnn3[C@H]3CC3(F)F)c2)n1)c1cccc(C(F)(F)F)c1F
2. C[C@@H](NC(=O)c1ccc(=O)n(-c2cncc(-c3cnnn3C)c2)n1)c1cccc(C(F)(F)CO)c1F

1. 6.82 to 7.30
2. > 7.30

* * *

Molecular target: KRAS G12C::SOS1 (Homo sapiens)
Construct: purchased CISBIO 64KRASG12PEH
Experiment: KRAS G12C::SOS1 protein-protein interaction (PPI) inhibition assay (HTRF)
Type: binding
Settings: 8 concentrations from 3 µM, three replicates; read-out: KRAS G12C::SOS1 PPI
pIC50: −log10 of the molar value.
observation type: pIC50

Return pIC50 measured with KRAS G12C::SOS1 (Homo sapiens) given this molecule: Cc1ncc(-n2nc(C(=O)N[C@H](C)c3cccc(C(F)(F)CO)c3F)ccc2=O)cc1-c1cnnn1C [Example 1-29]
> 7.30

Return pIC50 measured with KRAS G12C::SOS1 (Homo sapiens) given this molecule: Cc1cc(C(=O)N[C@H](C)c2cccc(C(F)(F)CO)c2F)nn(-c2cncc(-c3cnnn3C)c2)c1=O [Example 1-23]
> 7.30

Return pIC50 measured with KRAS G12C::SOS1 (Homo sapiens) given this molecule: C[C@@H](NC(=O)c1ccc(=O)n(-c2cncc(-c3cnnn3C3CCC3)c2)n1)c1cccc(C(F)(F)CO)c1F [Example 1-55]
> 7.30

Return pIC50 measured with KRAS G12C::SOS1 (Homo sapiens) given this molecule: C[C@@H](NC(=O)c1cc(-c2ccccc2)c(=O)n(-c2cncc(-c3cnnn3C)c2)n1)c1cccc(C(F)(F)F)c1F [Example 1-63]
6.82 to 7.30

Return pIC50 measured with KRAS G12C::SOS1 (Homo sapiens) given this molecule: C[C@@H](NC(=O)c1ccc(=O)n(-c2cncc(-c3cnnn3C)c2)n1)c1cccc(C(F)(F)F)c1F [Example 1-2]
6.82 to 7.30

Return pIC50 measured with KRAS G12C::SOS1 (Homo sapiens) given this molecule: [2H]c1cc(C(=O)N[C@H](C)c2cccc(C(F)(F)F)c2F)nn(-c2cncc(-c3cnnn3C)c2)c1=O [Example 1-38]
> 7.30

# evaluate next
Return pIC50 measured with KRAS G12C::SOS1 (Homo sapiens) given this molecule: CCn1nncc1-c1cncc(-n2nc(C(=O)N[C@H](C)c3cccc(C(F)(F)F)c3F)cc(CO)c2=O)c1 [Example 6-4]
6.82 to 7.30

* * *

Target: SOS1 (Homo sapiens)
Construct: HIS-SOS1cat (160 nM; Cytoskeleton, US); His (N); purchased Cytoskeleton
Sequence (Q07889 564-1049 limits assumed): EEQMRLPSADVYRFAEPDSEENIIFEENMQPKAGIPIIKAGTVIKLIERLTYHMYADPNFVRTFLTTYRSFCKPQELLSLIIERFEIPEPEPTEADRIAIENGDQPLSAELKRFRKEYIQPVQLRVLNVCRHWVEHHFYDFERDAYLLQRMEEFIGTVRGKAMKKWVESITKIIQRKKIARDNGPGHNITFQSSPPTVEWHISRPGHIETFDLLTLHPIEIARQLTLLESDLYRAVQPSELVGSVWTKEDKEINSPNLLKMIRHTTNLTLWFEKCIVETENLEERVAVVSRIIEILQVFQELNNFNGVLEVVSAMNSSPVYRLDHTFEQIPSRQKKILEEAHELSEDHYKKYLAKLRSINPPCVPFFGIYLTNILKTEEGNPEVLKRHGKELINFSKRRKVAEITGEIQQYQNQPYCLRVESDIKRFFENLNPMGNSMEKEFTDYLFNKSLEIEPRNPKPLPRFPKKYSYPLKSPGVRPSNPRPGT
Assay: SOS-catalyzed nucleotide exchange assay (HTRF, SOS1-mediated GTP loading of KRAS G12D)
Type: biochemical
Conditions: GST-KRAS G12D, HIS-SOS1cat, compound 128 pM to 10 µM; read-out: SOS-catalyzed nucleotide exchange assay
pIC50: −log10 of the molar value.
So I've got a bunch of compounds here, and I need their pIC50 values.

The cases that follow already have their pIC50 on record.
Which value of pIC50 has been reported for [2H]C([2H])([2H])c1cc(C(=O)N[C@H](C)c2cccc(C(F)(F)F)c2F)nn(-c2cncc(-c3cnnn3C)c2)c1=O [Example 7-1] in the records?
6.82 to 7.30

Which value of pIC50 has been reported for Cc1cc(C(=O)N[C@H](C)c2cc(N)cc(C(F)(F)F)c2F)nn(-c2cncc(-c3cnnn3C)c2)c1=O [Example 2-5] in the records?
> 7.30

Which value of pIC50 has been reported for C[C@@H](NC(=O)c1ccc(=O)n(-c2cncc(-c3cnnn3C3CCN(C)CC3)c2)n1)c1cccc(C(F)(F)F)c1F [Example 20-6] in the records?
> 7.30

Which value of pIC50 has been reported for COC(=O)N1CC(n2nncc2-c2cncc(-n3nc(C(=O)N[C@H](C)c4cccc(C(F)(F)F)c4F)ccc3=O)c2)C1 [Example 20-11] in the records?
> 7.30

Which value of pIC50 has been reported for C[C@@H](NC(=O)c1ccc(=O)n(-c2cncc(-c3cnnn3C3CC3)c2)n1)c1cc(N)cc(C(F)(F)F)c1 [Example 1-56] in the records?
> 7.30

Which value of pIC50 has been reported for Cc1ncc(-n2nc(C(=O)N[C@H](C)c3cccc(C(F)(F)CO)c3F)ccc2=O)cc1-c1cnnn1C [Example 1-29] in the records?
6.82 to 7.30

# evaluate next
Which value of pIC50 has been reported for C[C@@H](NC(=O)c1ccc(=O)n(-c2cncc(-c3cnnn3C3CC3)c2)n1)c1cccc(C(F)(F)CO)c1F [Example 1-53] in the records?
> 7.30

Data provenance: patent EP4667464A1
